B1: TLE6 (parent)
chain: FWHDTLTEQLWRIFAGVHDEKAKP

Variants of: B1
Protocol summary: protein stability index of a GFP-peptide fusion (GPS, HEK-293T) (PSI 1-6); higher = more stable;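 further: lentivirally expressed fusions sorted by FACS into six bins by GFP to DsRed ratio, PSI derived from sequencing read proportions per bin multiplied by bin number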
Measurement setup: c terminus: a fixed tail appended
Measurement kind: protein stability index
Lab note: record the figure alone, no unit after it.

Query :: Request the reported protein stability index associated with H3N
Result :: 2.7

Query :: Request the reported protein stability index associated with K21G
Result :: 2.06

Query :: Request the reported protein stability index associated with G16F
Result :: 1.72

Query :: Request the reported protein stability index associated with W11L
Result :: 1.85

Query :: Request the reported protein stability index associated with G16D
Result :: 2.06

Query :: Request the reported protein stability index associated with D4H
Result :: 1.8

Query :: Request the reported protein stability index associated with W2T
Result :: 2.35

Query :: Request the reported protein stability index associated with F14M
Result :: 2.19

Query :: Request the reported protein stability index associated with G16P
Result :: 3.4

Query :: Request the reported protein stability index associated with K21L
Result :: 2.2

Query :: Request the reported protein stability index associated with H3L
Result :: 1.9

Query :: Request the reported protein stability index associated with D19T
Result :: 2.7

Query :: Request the reported protein stability index associated with T5P
Result :: 2.73

Query :: Request the reported protein stability index associated with W2A
Result :: 2

Query :: Request the reported protein stability index associated with W2L
Result :: 2.54

Query :: Request the reported protein stability index associated with R12W
Result :: 2.47

Query :: Request the reported protein stability index associated with K23M
Result :: 2.8

Query :: Request the reported protein stability index associated with T7P
Result :: 2.01

Query :: Request the reported protein stability index associated with K21F
Result :: 2.72

Query :: Request the reported protein stability index associated with A22M
Result :: 2.03

Query :: Request the reported protein stability index associated with R12M
Result :: 1.52

Query :: Request the reported protein stability index associated with K23W
Result :: 2.25

Query :: Request the reported protein stability index associated with W11G
Result :: 2.46

Query :: Request the reported protein stability index associated with I13R
Result :: 2.02

Query :: Request the reported protein stability index associated with R12I
Result :: 2.73

Query :: Request the reported protein stability index associated with D4S
Result :: 1.83

Query :: Request the reported protein stability index associated with H18D
Result :: 2.1

Query :: Request the reported protein stability index associated with D19P
Result :: 1.8

Query :: Request the reported protein stability index associated with A22Y
Result :: 1.37

Query :: Request the reported protein stability index associated with F1S
Result :: 1.91

Query :: Request the reported protein stability index associated with D4T
Result :: 1.73

Query :: Request the reported protein stability index associated with K21Q
Result :: 1.81

Query :: Request the reported protein stability index associated with Q9A
Result :: 3.78

Query :: Request the reported protein stability index associated with F1K
Result :: 2.44

Query :: Request the reported protein stability index associated with R12A
Result :: 1.91

Query :: Request the reported protein stability index associated with P24W
Result :: 1.92

Query :: Request the reported protein stability index associated with L6N
Result :: 2.31

Query :: Request the reported protein stability index associated with V17Q
Result :: 2.06

Query :: Request the reported protein stability index associated with K21C
Result :: 1.51

Query :: Request the reported protein stability index associated with A15G
Result :: 2.02

Query :: Request the reported protein stability index associated with L6Y
Result :: 1.11

Query :: Request the reported protein stability index associated with W11M
Result :: 1.76

Query :: Request the reported protein stability index associated with A15N
Result :: 1.68

Query :: Request the reported protein stability index associated with H18Y
Result :: 2.35

Query :: Request the reported protein stability index associated with H3A
Result :: 3.32

Query :: Request the reported protein stability index associated with A22C
Result :: 1.81

// provenance: the supplement of paper PMC10567573
